tested on: OVCAR-5; test: Inhibition of cell adhesion to fibronectin in human OVCAR-5 cells at 10 uM incubated for 6 hrs by CCK-8 assay; assay type: functional, cell-based
Activity calls are given as the source filed them. No cut-off for these calls is given here.
Answer with one of the outcomes T = active, F = inactive

Here are 3 compounds together with their reported answers.
Cc1cc(N(C)CCOCCOCCOCCOCCOCCC(=O)N[C@H](C(=O)N2C[C@@H](O)C[C@H]2C(=O)NCc2ccc(-c3scnc3C)cc2)C(C)(C)C)nc(Nc2ccc(NC(=O)Cc3ccccc3)cc2)n1	F
Cc1cc(N(C)CCOCCOCCOCCOCCOCCC(=O)N[C@H](C(=O)N2C[C@H](O)C[C@H]2C(=O)NCc2ccc(-c3scnc3C)cc2)C(C)(C)C)nc(Nc2ccc(NC(=O)Cc3ccccc3)cc2)n1	T
Cc1cc(N(C)CCOCCC(=O)N[C@H](C(=O)N2C[C@H](O)C[C@H]2C(=O)NCc2ccc(-c3scnc3C)cc2)C(C)(C)C)nc(Nc2ccc(NC(=O)Cc3ccccc3)cc2)n1	T

Now take the following compound into account.
I would be grateful if you could indicate the recorded call for `Cc1cc(N(C)CCOCCC(=O)N[C@H](C(=O)N2C[C@@H](O)C[C@H]2C(=O)NCc2ccc(-c3scnc3C)cc2)C(C)(C)C)nc(Nc2ccc(NC(=O)Cc3ccccc3)cc2)n1` . F

These data points were gathered from ChEMBL document CHEMBL5346966.
